Target: Thrombin (Oryctolagus cuniculus) (UniProt Q28731)
Assay: Inhibition of thrombin in New Zealand rabbit plasma assessed as fibrinogen level at 100 uM by coagulometry
Classify as follows. Reported Activity greater than or equal to 6 g/L: YES. Reported Activity below: NO.

[
  {
    "SMILES_ENTRY": "COc1cc(-c2oc3cc(O)cc(O)c3c(=O)c2O)ccc1O",
    "ANSWER_LABEL": "NO"
  },
  {
    "SMILES_ENTRY": "COc1cc(OC)c2c(=O)c(OC)c(-c3ccc(OC)c(OC)c3)oc2c1",
    "ANSWER_LABEL": "YES"
  },
  {
    "SMILES_ENTRY": "COc1cc(O)c2c(=O)c(O)c(-c3ccc(O)c(O)c3)oc2c1",
    "ANSWER_LABEL": "NO"
  },
  {
    "SMILES_ENTRY": "COc1cc(O)c2c(=O)c(OC)c(-c3ccc(OC)c(OC)c3)oc2c1",
    "ANSWER_LABEL": "YES"
  },
  {
    "SMILES_ENTRY": "COc1cc(O)c2c(=O)c(OC)c(-c3ccc(OC)c(O)c3)oc2c1",
    "ANSWER_LABEL": "NO"
  }
]

* * *

Target: Thrombin (Oryctolagus cuniculus)
Test: Inhibition of thrombin in New Zealand rabbit plasma assessed as prothrombin time at 100 uM by coagulometry
Reported PT is given for each of the following molecules.

[
  {
    "SMILES_ENTRY": "COc1cc(O)c2c(=O)c(OC)c(-c3ccc(O)c(O)c3)oc2c1",
    "PT": "7.3 s"
  },
  {
    "SMILES_ENTRY": "COc1ccc(-c2oc3cc(O)cc(OC)c3c(=O)c2O)cc1OC",
    "PT": "5.1 s"
  },
  {
    "SMILES_ENTRY": "COc1cc(O)c2c(=O)c(OC)c(-c3ccc(OC)c(OC)c3)oc2c1",
    "PT": "5.4 s"
  },
  {
    "SMILES_ENTRY": "COc1cc(O)cc2oc(-c3ccc(O)c(O)c3)c(O)c(=O)c12",
    "PT": "7.6 s"
  },
  {
    "SMILES_ENTRY": "COc1cc(OC)c2c(=O)c(O)c(-c3ccc(O)c(O)c3)oc2c1",
    "PT": "6.9 s"
  }
]

* * *

Target: Thrombin (Oryctolagus cuniculus) (UniProt Q28731)
Assay: Inhibition of thrombin in New Zealand rabbit plasma assessed as prothrombin time at 100 uM by coagulometry
The following compounds are listed with their measured PT values.

[
  {
    "SMILES_ENTRY": "O=c1c(O)c(-c2ccc(O)c(O)c2)oc2cc(O)cc(O)c12",
    "PT": "6.2 s"
  },
  {
    "SMILES_ENTRY": "COc1cc(OC)c2c(=O)c(OC)c(-c3ccc(OC)c(OC)c3)oc2c1",
    "PT": "5.2 s"
  },
  {
    "SMILES_ENTRY": "COc1cc(O)c2c(=O)c(O)c(-c3ccc(O)c(O)c3)oc2c1",
    "PT": "6.8 s"
  },
  {
    "SMILES_ENTRY": "COc1cc(-c2oc3cc(O)cc(O)c3c(=O)c2O)ccc1O",
    "PT": "5.3 s"
  },
  {
    "SMILES_ENTRY": "COc1cc(O)c2c(=O)c(O)c(-c3ccc(OC)c(O)c3)oc2c1",
    "PT": "7.4 s"
  },
  {
    "SMILES_ENTRY": "COc1ccc(-c2oc3cc(O)cc(O)c3c(=O)c2O)cc1OC",
    "PT": "5.8 s"
  },
  {
    "SMILES_ENTRY": "COc1c(-c2ccc(O)c(O)c2)oc2cc(O)cc(OC)c2c1=O",
    "PT": "5.7 s"
  },
  {
    "SMILES_ENTRY": "COc1c(-c2ccc(O)c(O)c2)oc2cc(O)cc(O)c2c1=O",
    "PT": "4.8 s"
  },
  {
    "SMILES_ENTRY": "COc1ccc(-c2oc3cc(O)cc(O)c3c(=O)c2O)cc1O",
    "PT": "6.9 s"
  },
  {
    "SMILES_ENTRY": "COc1cc(-c2oc3cc(O)cc(OC)c3c(=O)c2O)ccc1O",
    "PT": "5.8 s"
  },
  {
    "SMILES_ENTRY": "COc1cc(O)c2c(=O)c(OC)c(-c3ccc(OC)c(O)c3)oc2c1",
    "PT": "6 s"
  }
]

* * *

Target: Thrombin (Oryctolagus cuniculus) (UniProt Q28731)
Assay: Inhibition of thrombin in New Zealand rabbit plasma assessed as activated partial thromboplastin time at 100 uM after 3 mins by coagulometry
APTT vs 60 s: less than gives MET; not less than gives NOT MET.

[
  {
    "SMILES_ENTRY": "COc1c(-c2ccc(O)c(O)c2)oc2cc(O)cc(OC)c2c1=O",
    "TEST_SYSTEM": "Thrombin (Oryctolagus cuniculus) (UniProt Q28731)",
    "ANSWER_LABEL": "NOT MET"
  },
  {
    "SMILES_ENTRY": "COc1cc(OC)c2c(=O)c(O)c(-c3ccc(O)c(O)c3)oc2c1",
    "TEST_SYSTEM": "Thrombin (Oryctolagus cuniculus) (UniProt Q28731)",
    "ANSWER_LABEL": "NOT MET"
  },
  {
    "SMILES_ENTRY": "COc1cc(-c2oc3cc(O)cc(O)c3c(=O)c2O)ccc1O",
    "TEST_SYSTEM": "Thrombin (Oryctolagus cuniculus) (UniProt Q28731)",
    "ANSWER_LABEL": "NOT MET"
  },
  {
    "SMILES_ENTRY": "COc1cc(O)c2c(=O)c(OC)c(-c3ccc(OC)c(OC)c3)oc2c1",
    "TEST_SYSTEM": "Thrombin (Oryctolagus cuniculus) (UniProt Q28731)",
    "ANSWER_LABEL": "MET"
  },
  {
    "SMILES_ENTRY": "COc1cc(O)c2c(=O)c(OC)c(-c3ccc(O)c(O)c3)oc2c1",
    "TEST_SYSTEM": "Thrombin (Oryctolagus cuniculus) (UniProt Q28731)",
    "ANSWER_LABEL": "MET"
  },
  {
    "SMILES_ENTRY": "COc1cc(O)c2c(=O)c(O)c(-c3ccc(O)c(O)c3)oc2c1",
    "TEST_SYSTEM": "Thrombin (Oryctolagus cuniculus) (UniProt Q28731)",
    "ANSWER_LABEL": "NOT MET"
  },
  {
    "SMILES_ENTRY": "COc1ccc(-c2oc3cc(O)cc(OC)c3c(=O)c2O)cc1OC",
    "TEST_SYSTEM": "Thrombin (Oryctolagus cuniculus) (UniProt Q28731)",
    "ANSWER_LABEL": "MET"
  },
  {
    "SMILES_ENTRY": "COc1cc(O)c2c(=O)c(O)c(-c3ccc(OC)c(O)c3)oc2c1",
    "TEST_SYSTEM": "Thrombin (Oryctolagus cuniculus) (UniProt Q28731)",
    "ANSWER_LABEL": "MET"
  },
  {
    "SMILES_ENTRY": "O=c1c(O)c(-c2ccc(O)c(O)c2)oc2cc(O)cc(O)c12",
    "TEST_SYSTEM": "Thrombin (Oryctolagus cuniculus) (UniProt Q28731)",
    "ANSWER_LABEL": "MET"
  },
  {
    "SMILES_ENTRY": "COc1cc(-c2oc3cc(O)cc(OC)c3c(=O)c2O)ccc1O",
    "TEST_SYSTEM": "Thrombin (Oryctolagus cuniculus) (UniProt Q28731)",
    "ANSWER_LABEL": "MET"
  },
  {
    "SMILES_ENTRY": "COc1cc(OC)c2c(=O)c(OC)c(-c3ccc(OC)c(OC)c3)oc2c1",
    "TEST_SYSTEM": "Thrombin (Oryctolagus cuniculus) (UniProt Q28731)",
    "ANSWER_LABEL": "MET"
  },
  {
    "SMILES_ENTRY": "COc1ccc(-c2oc3cc(O)cc(O)c3c(=O)c2O)cc1O",
    "TEST_SYSTEM": "Thrombin (Oryctolagus cuniculus) (UniProt Q28731)",
    "ANSWER_LABEL": "MET"
  }
]

* * *

Measured TT, listed per entry.
Biological target: Thrombin (Oryctolagus cuniculus) (UniProt Q28731)
Test: Inhibition of thrombin in New Zealand rabbit plasma assessed as thrombin time at 100 uM after 3 mins by coagulometry
OBSERVABLE: TT (s)

[
  {
    "SMILES_ENTRY": "COc1cc(OC)c2c(=O)c(OC)c(-c3ccc(OC)c(OC)c3)oc2c1",
    "DATA_VALUE": 11.6
  },
  {
    "SMILES_ENTRY": "COc1cc(O)c2c(=O)c(O)c(-c3ccc(O)c(O)c3)oc2c1",
    "DATA_VALUE": 23
  },
  {
    "SMILES_ENTRY": "O=c1c(O)c(-c2ccc(O)c(O)c2)oc2cc(O)cc(O)c12",
    "DATA_VALUE": 19.2
  },
  {
    "SMILES_ENTRY": "COc1cc(O)c2c(=O)c(OC)c(-c3ccc(OC)c(O)c3)oc2c1",
    "DATA_VALUE": 14.9
  },
  {
    "SMILES_ENTRY": "COc1cc(O)cc2oc(-c3ccc(O)c(O)c3)c(O)c(=O)c12",
    "DATA_VALUE": 19.4
  },
  {
    "SMILES_ENTRY": "COc1ccc(-c2oc3cc(O)cc(O)c3c(=O)c2O)cc1OC",
    "DATA_VALUE": 9.9
  },
  {
    "SMILES_ENTRY": "COc1c(-c2ccc(O)c(O)c2)oc2cc(O)cc(O)c2c1=O",
    "DATA_VALUE": 22.9
  },
  {
    "SMILES_ENTRY": "COc1c(-c2ccc(O)c(O)c2)oc2cc(O)cc(OC)c2c1=O",
    "DATA_VALUE": 20
  },
  {
    "SMILES_ENTRY": "COc1cc(-c2oc3cc(O)cc(O)c3c(=O)c2O)ccc1O",
    "DATA_VALUE": 20.5
  },
  {
    "SMILES_ENTRY": "COc1cc(O)c2c(=O)c(OC)c(-c3ccc(OC)c(OC)c3)oc2c1",
    "DATA_VALUE": 14.2
  },
  {
    "SMILES_ENTRY": "COc1cc(O)c2c(=O)c(OC)c(-c3ccc(O)c(O)c3)oc2c1",
    "DATA_VALUE": 22.5
  }
]
